# assay system: human recombinant HDAC6 (Homo sapiens, UniProt Q9UBN7)
# Construct: purchased Calbiochem 382180
# Sequence (Q9UBN7 whole entry): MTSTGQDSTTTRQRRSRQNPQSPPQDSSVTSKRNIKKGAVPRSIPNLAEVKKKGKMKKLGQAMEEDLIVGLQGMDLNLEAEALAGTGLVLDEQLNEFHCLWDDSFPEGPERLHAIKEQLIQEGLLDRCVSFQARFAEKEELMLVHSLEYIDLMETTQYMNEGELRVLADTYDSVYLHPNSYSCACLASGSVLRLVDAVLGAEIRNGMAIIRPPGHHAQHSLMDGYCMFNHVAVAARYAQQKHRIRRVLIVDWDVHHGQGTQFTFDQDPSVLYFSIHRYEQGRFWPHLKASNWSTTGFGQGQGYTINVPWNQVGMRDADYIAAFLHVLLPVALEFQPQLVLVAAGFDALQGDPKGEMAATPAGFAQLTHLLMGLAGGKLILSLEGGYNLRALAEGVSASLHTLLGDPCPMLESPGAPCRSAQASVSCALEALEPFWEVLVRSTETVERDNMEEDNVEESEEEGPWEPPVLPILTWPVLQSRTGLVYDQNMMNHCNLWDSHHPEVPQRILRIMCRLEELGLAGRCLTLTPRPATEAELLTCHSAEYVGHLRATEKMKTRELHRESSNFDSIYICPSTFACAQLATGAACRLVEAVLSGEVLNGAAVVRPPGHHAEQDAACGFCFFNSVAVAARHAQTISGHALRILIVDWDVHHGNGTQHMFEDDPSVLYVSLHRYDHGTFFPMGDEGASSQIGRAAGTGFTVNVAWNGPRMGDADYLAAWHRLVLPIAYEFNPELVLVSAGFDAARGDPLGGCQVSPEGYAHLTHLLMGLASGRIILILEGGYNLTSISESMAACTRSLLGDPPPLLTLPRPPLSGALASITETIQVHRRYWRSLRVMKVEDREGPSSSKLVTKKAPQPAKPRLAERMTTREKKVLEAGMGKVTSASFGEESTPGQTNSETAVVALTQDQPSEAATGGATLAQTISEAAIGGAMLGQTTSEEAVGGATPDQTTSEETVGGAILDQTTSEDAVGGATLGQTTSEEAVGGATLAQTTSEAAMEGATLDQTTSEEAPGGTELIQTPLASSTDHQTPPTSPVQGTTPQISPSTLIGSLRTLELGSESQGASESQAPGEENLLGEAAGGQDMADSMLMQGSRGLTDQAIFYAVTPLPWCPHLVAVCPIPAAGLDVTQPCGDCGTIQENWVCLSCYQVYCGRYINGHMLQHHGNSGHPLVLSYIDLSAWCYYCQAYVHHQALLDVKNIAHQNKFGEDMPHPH
# test name: HDAC6 enzyme activity inhibition assay (HDAC Fluorimetric Drug Discovery Kit)
# Assay type: biochemical
# measurement conditions: 30° C. 60 minutes
# Description: In order to examine the HDAC6 selectivity of the compounds of formula I of the present invention by HDAC1 and HDAC6 enzymatic activity inhibition assays, an experiment was performed using a conventional substance as a control. HDAC enzyme activity was measured using a HDAC Fluorimetric Drug Discovery Kit (BML-AK511, 516, Enzo Life Science). […] Based on the resulting values, each IC50 value was calculated using GraphPad Prism4.0 program.
experimental endpoint: pIC50
FYI, pIC50 means -log10 of a concentration in mol per litre.

structure notation: Fc1ccc(C2(Nc3ncc(-c4nnc(C(F)F)o4)cn3)CCC2)cc1F
assay system: human recombinant HDAC6 (Homo sapiens, UniProt Q9UBN7)
pIC50: 7.21

structure notation: FC(F)c1nnc(-c2cnc(NC3(c4ccccc4C(F)(F)F)CCC3)nc2)o1
assay system: human recombinant HDAC6 (Homo sapiens, UniProt Q9UBN7)
pIC50: 6.76

structure notation: Oc1cccc(C2(Nc3ncc(-c4nnc(C(F)F)o4)cn3)CCC2)c1
assay system: human recombinant HDAC6 (Homo sapiens, UniProt Q9UBN7)
pIC50: 7.60

structure notation: FC(F)c1nnc(-c2cnc(NC3(c4ccccc4Cl)CCC3)nc2)o1
assay system: human recombinant HDAC6 (Homo sapiens, UniProt Q9UBN7)
pIC50: 7.54

structure notation: FC(F)c1nnc(-c2cnc(NC3(c4cccc(C(F)(F)F)c4)CC3)nc2)o1
assay system: human recombinant HDAC6 (Homo sapiens, UniProt Q9UBN7)
pIC50: 7.21

Query block: Form field - read-out: pIC50; system: human recombinant HDAC6 (Homo sapiens, UniProt Q9UBN7); submitted item: FC(F)(F)c1nnc(-c2cnc(NC3(c4cccc(Cl)c4)CC3)nc2)o1
Result block: 6.82

Query block: Similarly, Fc1cccc(C2(Nc3ncc(-c4nnc(C(F)F)o4)cn3)CCC2)c1F ?
Result block: 7.37

Query block: Similarly, Fc1ccccc1C1(Nc2ncc(-c3nnc(C(F)F)o3)cn2)CCC1 ?
Result block: 7.64

Query block: Similarly, Cc1ccc(C2(Nc3ncc(-c4nnc(C(F)(F)F)o4)cn3)CCC2)cc1 ?
Result block: 6.62

Query block: Similarly, FC(F)c1nnc(-c2cnc(NC3(c4ccccc4)CCCC3)nc2)o1 ?
Result block: 7.34

Query block: Similarly, COc1cccc(C2(Nc3ncc(-c4nnc(C(F)F)o4)cn3)CC2)c1 ?
Result block: 7.20

Query block: Similarly, Fc1ccc(C2(Nc3ncc(-c4nnc(C(F)F)o4)cn3)CCC2)c(F)c1 ?
Result block: 7.05
